target: human orexin-2 receptor (Homo sapiens (Human)); test: Intracellular calcium measurement (FLIPR), CHO cells expressing human orexin-2 receptor, 3 nM orexin-A; assay type: cell-based; settings: CHO cells expressing human orexin-2 receptor, FLIPR, 3 nM orexin-A; geometric mean if determined several times; read-out: IC50 OX2
Sequence (O43614 whole entry): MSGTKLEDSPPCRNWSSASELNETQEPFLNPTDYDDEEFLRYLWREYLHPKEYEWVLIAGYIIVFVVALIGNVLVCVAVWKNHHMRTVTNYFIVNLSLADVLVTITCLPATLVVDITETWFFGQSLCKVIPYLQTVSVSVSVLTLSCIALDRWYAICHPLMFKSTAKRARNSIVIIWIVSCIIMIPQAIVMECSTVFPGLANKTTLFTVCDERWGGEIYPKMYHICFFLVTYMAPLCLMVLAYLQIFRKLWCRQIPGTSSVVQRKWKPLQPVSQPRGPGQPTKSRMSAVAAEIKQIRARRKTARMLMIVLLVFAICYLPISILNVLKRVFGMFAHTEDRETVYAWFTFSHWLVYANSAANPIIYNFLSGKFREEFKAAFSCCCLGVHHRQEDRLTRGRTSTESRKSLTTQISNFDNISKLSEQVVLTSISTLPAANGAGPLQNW
PROPERTY MEASURED: IC50 (nM)

Here's what some known entries look like.
RECORD SMILES	UNIT NAME	IC50
Cc1cccc(-c2nc([C@@H]3CCCN3C(=O)c3cc(C)ccc3-n3nccn3)no2)c1	nM	74
Cc1ccc(-n2nccn2)c(C(=O)N2CCC[C@H]2c2nnc(-c3cccc(Cl)c3)o2)c1	nM	1690
Cc1ccc(-n2nccn2)c(C(=O)N2CCC[C@H]2c2nc(-c3ccccc3OC(F)(F)F)co2)c1	nM	16

I: COc1c(F)cccc1-c1nc([C@@H]2CCCN2C(=O)c2cc(C)c(C)cc2-n2nccn2)no1
II: CCc1ccccc1-c1nc([C@@H]2CCCN2C(=O)c2ccc(C)cc2-n2nccn2)no1
Hi there, can you help? I need to know whether I or II has lower measured IC50. Refer to your chosen entry by its label in the reply.
I
(I: 0.4 nM, II: 17 nM)

====

target: human orexin-2 receptor (Homo sapiens (Human)); test: Intracellular calcium measurement (FLIPR), CHO cells expressing human orexin-2 receptor, 3 nM orexin-A; type: cell-based; conditions: CHO cells expressing human orexin-2 receptor, FLIPR, 3 nM orexin-A; geometric mean if determined several times; read-out: IC50 OX2
PROPERTY MEASURED: IC50 (nM)

MOLECULE	UNIT NAME	IC50
COc1ccc(F)c(-c2noc([C@@H]3CCCN3C(=O)c3cc(C)ccc3-n3nccn3)n2)c1F [compound 69]	nM	163
Cc1ccc(-n2nccn2)c(C(=O)N2CCC[C@H]2c2nc(-c3ccc4c(c3)OC(F)(F)O4)no2)c1 [compound 19]	nM	652

P: CCOc1ncccc1-c1nc([C@@H]2CCCN2C(=O)c2cc(C)c(C)cc2-n2nccn2)no1 [compound 331]
Q: O=C(c1cccc(F)c1-c1ccn[nH]1)N1CCC[C@H]1c1nc(-c2ccccc2C(F)(F)F)no1 [compound 183]
Name the one with the greater IC50 value, either P or Q as given. Refer to your chosen entry by its label in the reply.
Q

====

target: orexin-1 (Homo sapiens (Human)); experiment: Intracellular calcium measurement (FLIPR), CHO cells expressing human orexin-1 receptor, 3 nM orexin-A; assay type: cell-based; details: CHO cells expressing human orexin-1 receptor, FLIPR, 3 nM orexin-A; geometric mean if determined several times; read-out: IC50 OX1
Sequence (O43613 whole entry): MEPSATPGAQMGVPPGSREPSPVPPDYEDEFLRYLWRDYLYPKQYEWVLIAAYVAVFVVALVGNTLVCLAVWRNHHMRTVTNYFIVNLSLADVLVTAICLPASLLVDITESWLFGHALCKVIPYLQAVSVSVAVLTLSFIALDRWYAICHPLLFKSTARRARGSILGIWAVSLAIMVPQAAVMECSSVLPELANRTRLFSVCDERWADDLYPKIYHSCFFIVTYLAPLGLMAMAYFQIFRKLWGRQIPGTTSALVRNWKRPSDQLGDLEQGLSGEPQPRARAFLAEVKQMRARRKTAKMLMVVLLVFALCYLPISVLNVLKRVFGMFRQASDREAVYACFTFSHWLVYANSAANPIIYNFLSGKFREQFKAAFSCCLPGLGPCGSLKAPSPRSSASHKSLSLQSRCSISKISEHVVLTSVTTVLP
PROPERTY MEASURED: IC50 (nM)

a: Cc1ccc(-n2nccn2)c(C(=O)N2CCC[C@H]2c2nc(-c3c(C)cccc3F)no2)c1
b: Cc1ccc(-n2nccn2)c(C(=O)N2CCC[C@H]2c2nc(-c3cccc(C)c3C)no2)c1
c: COc1cc(C)cc(-c2nc([C@@H]3CCCN3C(=O)c3cc(OC)c(C)cc3-n3nccn3)no2)c1
Ascending sort, IC50. Would you mind listing the labels in the order asked for?
c, b, a

P: COc1ccc(C)c(-c2nc([C@@H]3CCCN3C(=O)c3cc(OC)c(C)cc3-n3nccn3)no2)c1
Q: COc1cc(C)cc(-c2nc([C@@H]3CCCN3C(=O)c3cc(C)c(C)cc3-n3nccn3)no2)c1
Hi there, can you help? I need to know whether P or Q has lower measured IC50. Refer to your chosen entry by its label in the reply.
Q
(Q: 10 nM, P: 118 nM)

a: O=C(c1ccc(C(F)(F)F)cc1-n1nccn1)N1CCC[C@H]1c1nc(-c2ccccc2OC(F)(F)F)no1
b: Cc1ccc(-n2nccn2)c(C(=O)N2CCC[C@H]2c2ncc(-c3ccccc3)[nH]2)c1
c: Cc1ccc(C(=O)N2CCC[C@H]2c2noc(-c3cccc(C)c3C)n2)c(-n2nccn2)c1
d: CCOc1c(F)cccc1-c1noc([C@@H]2CCCN2C(=O)c2ccccc2-n2nccn2)n1
Reorder the items by IC50, least to greatest. Would you mind listing the labels in the order asked for?
c, a, b, d
(c: 68 nM, a: 132 nM, b: 389 nM, d: 666 nM)

P: COc1ccc(-n2nccn2)c(C(=O)N2CCC[C@H]2c2nc(-c3cccc(F)c3C)no2)c1
Q: CCOc1c(F)cccc1-c1noc([C@@H]2CCCN2C(=O)c2cc(OC)c(F)cc2-n2nccn2)n1
Hi there, can you help? I need to know whether P or Q has lower measured IC50. Refer to your chosen entry by its label in the reply.
P

a: Cc1c(F)cccc1-c1noc([C@@H]2CCCN2C(=O)c2cccc(F)c2-c2ccn[nH]2)n1
b: Cc1ccc(-n2nccn2)c(C(=O)N2CCC[C@H]2c2nnc(-c3cccc(F)c3C)o2)c1
Hi there, can you help? I need to know whether a or b has lower measured IC50. Refer to your chosen entry by its label in the reply.
a
(a: 174 nM, b: 398 nM)

Ref: patent US9493446B2
